Biological target: T1, human GFRα3 expressed with a C-terminal myc-myc-hexahistidine tag (human, UniProt O60609 32-374, biotinylated (sites not given) in ELISA format 2 and in the Octet cross-competition; not in SPR)
T1 construct: also called hGFRα3-mmh; hGFRα3-mmH
T1 sequence (O60609 other isoform, or with tags, fused parts or gaps limits assumed): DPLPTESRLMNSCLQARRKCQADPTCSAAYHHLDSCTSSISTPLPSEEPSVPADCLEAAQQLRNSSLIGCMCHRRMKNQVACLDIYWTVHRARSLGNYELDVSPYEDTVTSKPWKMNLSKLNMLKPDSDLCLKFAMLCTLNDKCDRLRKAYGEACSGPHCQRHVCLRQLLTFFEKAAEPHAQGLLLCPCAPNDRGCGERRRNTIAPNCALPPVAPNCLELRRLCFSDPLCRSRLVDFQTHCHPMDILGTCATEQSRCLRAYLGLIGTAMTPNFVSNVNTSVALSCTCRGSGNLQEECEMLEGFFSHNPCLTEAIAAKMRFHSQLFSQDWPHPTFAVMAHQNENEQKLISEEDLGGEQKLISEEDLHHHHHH
Assay: Octet RED384; 25 µg/mL first antibody on streptavidin-captured biotin-hGFRα3-mmH
MEASURE: Amount of Antibody 1 bound (nm)
Write the answer as a number in nm, unit excluded.

Query: Could you tell me which Amount of Antibody 1 bound (nm) is on file for H4H2243N2 (antibody, human IgG4, V domains shown, human IgG4 Fc (H4H)) VH: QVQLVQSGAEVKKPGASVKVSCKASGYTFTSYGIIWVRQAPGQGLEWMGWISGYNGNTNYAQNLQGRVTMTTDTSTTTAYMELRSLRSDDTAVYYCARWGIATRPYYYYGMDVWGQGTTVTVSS VL: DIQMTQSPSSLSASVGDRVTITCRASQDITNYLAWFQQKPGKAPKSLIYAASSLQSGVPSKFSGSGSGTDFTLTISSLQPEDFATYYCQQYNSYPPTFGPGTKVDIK ?
Result: 2.42

Query: # input binder: H4H2291S (antibody, human IgG4, V domains shown, human IgG4 Fc (H4H)) VH: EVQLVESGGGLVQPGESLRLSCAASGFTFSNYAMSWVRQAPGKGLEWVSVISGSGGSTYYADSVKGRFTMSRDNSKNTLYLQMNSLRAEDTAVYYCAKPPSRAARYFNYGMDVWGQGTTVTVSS VL: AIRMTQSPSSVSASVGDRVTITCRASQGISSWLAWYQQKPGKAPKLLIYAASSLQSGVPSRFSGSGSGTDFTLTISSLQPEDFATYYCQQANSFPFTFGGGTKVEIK ; wanted: its Amount of Antibody 1 bound (nm)
Result: 2.89

Query: # lookup: Amount of Antibody 1 bound (nm) of H4H2357S (antibody, human IgG4, V domains shown, human IgG4 Fc (H4H)) VH: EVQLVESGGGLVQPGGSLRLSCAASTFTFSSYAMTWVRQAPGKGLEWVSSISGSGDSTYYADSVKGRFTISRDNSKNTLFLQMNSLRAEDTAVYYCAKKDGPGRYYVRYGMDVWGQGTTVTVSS VL: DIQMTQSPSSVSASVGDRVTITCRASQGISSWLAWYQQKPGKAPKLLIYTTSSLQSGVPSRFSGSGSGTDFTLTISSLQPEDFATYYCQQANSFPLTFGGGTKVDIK
Result: 2.82

Query: Any idea what its Amount of Antibody 1 bound (nm) is? The binder is H4H2292S (antibody, human IgG4, V domains shown, human IgG4 Fc (H4H)) VH: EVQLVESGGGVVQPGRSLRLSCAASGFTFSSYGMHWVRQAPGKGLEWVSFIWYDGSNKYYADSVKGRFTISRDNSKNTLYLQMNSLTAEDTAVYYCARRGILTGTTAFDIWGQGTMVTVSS VL: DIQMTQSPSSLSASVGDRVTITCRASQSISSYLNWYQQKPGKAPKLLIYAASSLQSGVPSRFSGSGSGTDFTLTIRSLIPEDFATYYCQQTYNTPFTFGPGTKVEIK
Result: 2.82

Query: What value of measured Amount of Antibody 1 bound (nm) is listed for H4H2350P (antibody, human IgG4, V domains shown, human IgG4 Fc (H4H)) VH: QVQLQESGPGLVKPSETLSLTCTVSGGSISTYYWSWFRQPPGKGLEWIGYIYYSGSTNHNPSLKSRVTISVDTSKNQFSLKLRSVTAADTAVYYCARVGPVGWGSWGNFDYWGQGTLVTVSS VL: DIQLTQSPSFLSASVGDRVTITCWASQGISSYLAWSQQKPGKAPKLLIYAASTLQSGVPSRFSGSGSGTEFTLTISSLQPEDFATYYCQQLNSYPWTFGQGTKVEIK ?
Result: 3.31

The values you see were collected from patent US20140056903A1.
